Experimental target: recombinant IL4I1 (Homo sapiens (Human))
Sequence (Q96RQ9 22-567): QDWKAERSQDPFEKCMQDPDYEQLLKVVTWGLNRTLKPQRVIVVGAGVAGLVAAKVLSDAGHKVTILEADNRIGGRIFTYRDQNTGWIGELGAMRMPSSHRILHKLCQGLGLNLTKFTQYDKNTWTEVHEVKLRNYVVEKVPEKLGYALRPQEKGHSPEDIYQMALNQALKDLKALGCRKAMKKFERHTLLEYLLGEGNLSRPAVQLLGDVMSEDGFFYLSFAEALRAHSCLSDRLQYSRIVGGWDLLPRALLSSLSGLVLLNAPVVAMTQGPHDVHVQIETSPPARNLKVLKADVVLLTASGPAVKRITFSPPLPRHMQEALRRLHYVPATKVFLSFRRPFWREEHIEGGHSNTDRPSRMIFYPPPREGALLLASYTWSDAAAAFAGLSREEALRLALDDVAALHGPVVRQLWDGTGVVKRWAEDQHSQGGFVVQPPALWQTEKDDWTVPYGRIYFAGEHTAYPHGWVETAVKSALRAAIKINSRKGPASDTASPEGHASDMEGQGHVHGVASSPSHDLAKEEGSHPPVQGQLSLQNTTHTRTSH
Experimental details: IL4I1 Enzymatic Assay (Amplex Red/HRP coupled fluorescence detection of H2O2)
Type: biochemical
Setup conditions: 240 min; recombinant IL4I1, four-hour pre-incubation with compound
# reported EC50; entries follow
Report only the number, with the unit nM understood.

Lab entry: recombinant IL4I1 (Homo sapiens (Human)) assay, molecule O=c1c(=O)n(C23CC(C2)C3)ccn1Cc1cnc(-c2ccccc2F)cn1 [Example 75] , EC50 = 7

Given the molecule O=c1c(=O)n(C2CCC2)ccn1Cc1cnc(-c2ccccc2)cn1 [Example 127] and test system recombinant IL4I1 (Homo sapiens (Human)), the measured EC50 is 3

Form field EC50 for item O=C1C(=O)N(C2CCC2)C2CCCC2N1Cc1ccc(-c2ccccc2)nn1 (single isomer, unassigned) [Example 435B] on recombinant IL4I1 (Homo sapiens (Human)): 76

Reading of EC50 for O=c1c(=O)n(C23CC(F)(C2)C3)ccn1Cc1cc(-c2ccccn2)no1 [Example 203] with recombinant IL4I1 (Homo sapiens (Human)): 19
